# credit: ChEMBL document CHEMBL2218924

# targetOrTestSystem: Serine/threonine-protein kinase ULK2 (Homo sapiens)
# particulars: at 1 µM
// classify: if (residual activity < 90%) true (1) else false (0)

{"columns": ["molecule", "targetOrTestSystem", "group"],
 "data": [
  ["c1ccc(-c2cnc(Nc3ccc(OCCN4CCCC4)cc3)s2)cc1", "Serine/threonine-protein kinase ULK2 (Homo sapiens)", "true (1)"],
  ["CCN(CC)CCNC(=O)c1c(C)[nH]c(/C=C2\\C(=O)Nc3ccc(Cl)cc32)c1C", "Serine/threonine-protein kinase ULK2 (Homo sapiens)", "true (1)"],
  ["COc1ccc2c(c1)c(C1=C(c3c[nH]c4ccccc34)C(=O)NC1=O)cn2CCCN(C)C", "Serine/threonine-protein kinase ULK2 (Homo sapiens)", "false (0)"],
  ["Nc1ncnc2c1cnn2-c1ccccc1", "Serine/threonine-protein kinase ULK2 (Homo sapiens)", "false (0)"],
  ["O=C(CCCc1ccc(-c2ccccc2F)cc1)Nc1ccc(O)cc1", "Serine/threonine-protein kinase ULK2 (Homo sapiens)", "false (0)"]
]}

Prompt line: Is residual activity strictly under 90% for the entry CC(C)(C)c1nc2c3ccc(F)cc3c3c(=O)[nH]ccc3c2[nH]1 ?
Response line: true (1)

Prompt line: Please do the same for O=C1Cc2c([nH]c3ccc([N+](=O)[O-])cc23)-c2ccccc2N1 as well.
Response line: true (1)

====

# targetOrTestSystem: Tyrosine-protein kinase Lyn (Homo sapiens)
# particulars: at 10 µM
Please mark rule met if the recorded residual activity is equal to or greater than 30%, and rule not met if it falls below.

{"columns": ["molecule", "group"],
 "data": [
  ["CC(C)c1nn(-c2c(Cl)cccc2Cl)c2nc(Cc3ccc(OCCO)cc3)[nH]c(=O)c12", "rule met"],
  ["O=C(Nc1nc2ccccc2n1CCN1CCOCC1)c1cccc([N+](=O)[O-])c1", "rule met"],
  ["CCCC(=O)Oc1ccc2[nH]c(C(=O)c3cc4ccccc4[nH]3)cc2c1", "rule met"],
  ["O=C1NC(=O)C(c2c[nH]c3ccccc23)=C1c1c[nH]c2ccccc12", "rule met"]
]}

Could you now look at the following compound, please?
Prompt line: I'd appreciate it if you could say whether COc1cc2nccc(Oc3ccc(NC(=O)Nc4cc(C)on4)c(Cl)c3)c2cc1OC has residual activity at least equal to 30%.
Response line: rule not met

====

# targetOrTestSystem: Tyrosine-protein kinase Fgr (Homo sapiens)
# particulars: at 10 µM
measuredEndpoint: residual activity (%)
Give the quantity in %, number only.

Before answering, review these 3 worked examples.
{"columns": ["molecule", "targetOrTestSystem", "residual activity [%]"],
 "data": [
  ["Nc1nc(Nc2ccc(S(N)(=O)=O)cc2)nn1C(=O)c1c(F)cccc1F", "Tyrosine-protein kinase Fgr (Homo sapiens)", 20],
  ["O=c1c(-c2ccc(F)cc2)c(-c2ccncc2)[nH]n1-c1ccc(Cl)cc1", "Tyrosine-protein kinase Fgr (Homo sapiens)", 65],
  ["CSc1nc(-c2ccc(F)cc2)c(-c2ccnc(NC(C)c3ccccc3)c2)[nH]1 (stereo unspecified)", "Tyrosine-protein kinase Fgr (Homo sapiens)", 71]
]}

Prompt line: Request: residual activity, test system Tyrosine-protein kinase Fgr (Homo sapiens), entry COc1cc2nccc(Oc3ccc(NC(=S)NC(=O)c4ccccc4C)cc3)c2cc1OC
Response line: 3

Prompt line: Likewise for CCOC(=O)c1c(C)[nH]c(/C=C2\C(=O)Nc3ccccc32)c1C ?
Response line: 74

Prompt line: Queued: O=C1NC(=O)C(c2cn(CCCO)c3ncccc23)=C1c1cnccn1
Response line: 97

Prompt line: Next record, please: O=c1cc(N2CCOCC2)oc2c1ccc1ccccc12
Response line: 94

Prompt line: // query: CCCC(=O)Oc1ccc2[nH]c(C(=O)c3cc4ccccc4[nH]3)cc2c1
Response line: 82

Prompt line: Request: CCN1/C(=C/C(C)=O)Sc2ccc(OC)cc21
Response line: 73

Prompt line: Would you kindly repeat that for CC(C)c1nn(-c2c(Cl)cccc2Cl)c2nc(Cc3ccc(OCCO)cc3)[nH]c(=O)c12 ?
Response line: 95

Prompt line: And for N#C/C(=C\c1ccc(O)c(O)c1)C(=O)NCc1ccccc1 ?
Response line: 82

====

Examples of compounds with documented residual activity follow.
# targetOrTestSystem: Hepatocyte growth factor receptor (Homo sapiens)
# particulars: at 1 µM
Give the value; after it, write the unit.

The examples below pair each entry with its known result.
{"columns": ["molecule", "targetOrTestSystem", "residual activity"],
 "data": [
  ["CC(C)[C@H](CO)Nc1nc(Nc2cc(N)cc(Cl)c2)c2ncn(C(C)C)c2n1", "Hepatocyte growth factor receptor (Homo sapiens)", "74%"],
  ["O=C1NC(=O)c2c1c1c3ccccc3[nH]c1n1cncc21", "Hepatocyte growth factor receptor (Homo sapiens)", "146%"],
  ["Nc1ncnc2c1c(-c1ccc(Oc3ccccc3)cc1)cn2C1CCCC1", "Hepatocyte growth factor receptor (Homo sapiens)", "72%"],
  ["COc1ccc2c(c1)c(C1=C(c3c[nH]c4ccccc34)C(=O)NC1=O)cn2CCCN(C)C", "Hepatocyte growth factor receptor (Homo sapiens)", "111%"],
  ["O=C(O)/C=C/c1cc(Br)c(Br)c(Br)c1Br", "Hepatocyte growth factor receptor (Homo sapiens)", "93%"],
  ["Cn1c2ccccc2c2c3c(c4c5ccccc5n(CCC#N)c4c21)CNC3=O", "Hepatocyte growth factor receptor (Homo sapiens)", "107%"]
]}

Prompt line: Find the measured residual activity: item Cn1sc(=O)n(Cc2ccccc2)c1=O , target or system Hepatocyte growth factor receptor (Homo sapiens).
Response line: 141%

Prompt line: Same lookup for COc1ccc(COc2ccc(Cc3cnc(N)nc3N)cc2OC)cc1 , please.
Response line: 109%

Prompt line: Queued: Oc1cccc(-c2nc(N3CCOCC3)c3oc4ncccc4c3n2)c1
Response line: 121%

====

# targetOrTestSystem: Serine/threonine-protein kinase PAK 4 (Homo sapiens) (UniProt O96013)
# Sequence (O96013 whole entry, looked up): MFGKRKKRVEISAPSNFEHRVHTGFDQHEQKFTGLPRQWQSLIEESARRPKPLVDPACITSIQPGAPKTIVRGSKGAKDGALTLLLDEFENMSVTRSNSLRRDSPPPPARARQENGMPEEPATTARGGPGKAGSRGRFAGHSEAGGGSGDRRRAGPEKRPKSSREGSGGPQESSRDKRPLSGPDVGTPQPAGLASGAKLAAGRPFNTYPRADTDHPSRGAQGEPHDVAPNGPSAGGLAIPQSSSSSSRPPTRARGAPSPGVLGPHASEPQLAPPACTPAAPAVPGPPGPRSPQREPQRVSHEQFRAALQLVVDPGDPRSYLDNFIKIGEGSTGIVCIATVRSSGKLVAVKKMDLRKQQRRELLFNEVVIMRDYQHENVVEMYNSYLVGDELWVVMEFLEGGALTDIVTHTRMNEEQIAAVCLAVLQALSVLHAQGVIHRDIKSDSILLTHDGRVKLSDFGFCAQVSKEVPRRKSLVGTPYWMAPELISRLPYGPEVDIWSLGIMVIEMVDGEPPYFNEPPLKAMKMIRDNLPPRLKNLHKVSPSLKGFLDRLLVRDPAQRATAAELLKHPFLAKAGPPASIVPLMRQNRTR
# particulars: at 10 µM
We label by threshold. Values of residual activity strictly beneath 70% are satisfied. Values of 70% and up are not satisfied.

{"columns": ["compound", "group"],
 "data": [
  ["CC(C)c1nn(-c2c(Cl)cccc2Cl)c2nc(Cc3ccc(OCCO)cc3)[nH]c(=O)c12", "satisfied"]
]}

Prompt line: Please state whether residual activity is below 70% for O=C1Cc2c([nH]c3ccc([N+](=O)[O-])cc23)-c2ccccc2N1
Response line: satisfied

Prompt line: Next compound up: O=C(c1cc2cc(O)ccc2[nH]1)c1cc2cc(O)ccc2[nH]1
Response line: satisfied

Prompt line: And what about the compound NC(=O)Nc1sc(-c2ccc(F)cc2)cc1C(N)=O ?
Response line: satisfied

Prompt line: Please answer likewise for Nc1n[nH]c2nc3ccccc3nc12
Response line: not satisfied

Prompt line: One more compound: O=C1NC(=O)c2c1c1c3ccccc3[nH]c1n1cncc21
Response line: not satisfied

====

# targetOrTestSystem: Tyrosine-protein kinase Mer (Homo sapiens)
# particulars: at 1 µM
measuredEndpoint: residual activity (%)
Number in %, nothing else.

{"columns": ["molecule", "targetOrTestSystem", "measurementUnits", "reportedMeasurement"],
 "data": [
  ["O=C1NC(=O)C(c2cn(CCCO)c3ncccc23)=C1c1cnccn1", "Tyrosine-protein kinase Mer (Homo sapiens)", "%", 89],
  ["COc1cc2nccc(Oc3ccc(NC(=O)Nc4cc(C)on4)c(Cl)c3)c2cc1OC", "Tyrosine-protein kinase Mer (Homo sapiens)", "%", 7],
  ["O=C(CCCc1ccc(-c2ccccc2F)cc1)Nc1ccc(O)cc1", "Tyrosine-protein kinase Mer (Homo sapiens)", "%", 102],
  ["COc1cc2nccc(Oc3ccc(NC(=S)NC(=O)c4ccccc4C)cc3)c2cc1OC", "Tyrosine-protein kinase Mer (Homo sapiens)", "%", 14]
]}

Now look at this one.
Prompt line: What reported residual activity corresponds to Nc1ncnc2c1c(-c1ccc(Oc3ccccc3)cc1)cn2C1CCCC1 on Tyrosine-protein kinase Mer (Homo sapiens)?
Response line: 102

====

# targetOrTestSystem: Rhodopsin kinase GRK7 (Homo sapiens) (UniProt Q8WTQ7)
# Sequence (Q8WTQ7 whole entry): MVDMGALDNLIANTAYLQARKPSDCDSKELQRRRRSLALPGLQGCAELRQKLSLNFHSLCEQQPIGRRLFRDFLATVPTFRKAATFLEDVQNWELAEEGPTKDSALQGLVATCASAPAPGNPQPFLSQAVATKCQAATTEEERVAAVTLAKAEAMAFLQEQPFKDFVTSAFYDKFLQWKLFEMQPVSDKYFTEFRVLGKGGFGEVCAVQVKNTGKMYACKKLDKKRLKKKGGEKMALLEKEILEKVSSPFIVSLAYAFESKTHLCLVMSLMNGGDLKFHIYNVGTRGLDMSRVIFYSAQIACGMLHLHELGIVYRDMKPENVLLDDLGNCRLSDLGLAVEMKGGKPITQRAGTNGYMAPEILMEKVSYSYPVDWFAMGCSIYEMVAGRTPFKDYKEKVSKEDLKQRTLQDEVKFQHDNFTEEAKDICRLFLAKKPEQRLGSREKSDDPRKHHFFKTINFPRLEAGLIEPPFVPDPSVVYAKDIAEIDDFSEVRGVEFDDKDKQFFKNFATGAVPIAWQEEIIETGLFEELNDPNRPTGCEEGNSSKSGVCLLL
# particulars: at 10 µM
measuredEndpoint: residual activity (%)
Write the answer as a number in %, unit excluded.

{"columns": ["molecule", "targetOrTestSystem", "measurementUnits", "reportedMeasurement"],
 "data": [
  ["CC(C)c1nn(-c2c(Cl)cccc2Cl)c2nc(Cc3ccc(OCCO)cc3)[nH]c(=O)c12", "Rhodopsin kinase GRK7 (Homo sapiens) (UniProt Q8WTQ7)", "%", 80],
  ["COc1ccc(Cl)cc1NC(=O)Nc1cc(C)nc2ccccc12", "Rhodopsin kinase GRK7 (Homo sapiens) (UniProt Q8WTQ7)", "%", 88],
  ["O=C1NC(=O)C(c2cn(CCCn3ccnc3)c3ccccc23)=C1Nc1ccccc1", "Rhodopsin kinase GRK7 (Homo sapiens) (UniProt Q8WTQ7)", "%", 22]
]}

Prompt line: Item under review: O=c1cc(N2CCOCC2)oc2c1ccc1ccccc12 . Reported residual activity?
Response line: 87

Prompt line: Same for Nc1ncnc2c1cnn2-c1ccccc1
Response line: 94

Prompt line: Ok, now COc1cc2nccc(Oc3ccc(NC(=S)NC(=O)c4ccccc4C)cc3)c2cc1OC
Response line: 84

Prompt line: Same question, NC(=O)Nc1sc(-c2ccc(F)cc2)cc1C(N)=O this time
Response line: 19

Prompt line: Entry CC(C)[C@H](CO)Nc1nc(Nc2cc(N)cc(Cl)c2)c2ncn(C(C)C)c2n1 please
Response line: 10
